Data provenance: patent US20250042994A1

- Target Entity: T1, Human CD19-his protein (human, UniProt P15391 20-291)
- T1 construct: bought protein; also called recombinant human CD19-His; CD19 full-length protein; not shown: His tag
- T1 sequence (looked up): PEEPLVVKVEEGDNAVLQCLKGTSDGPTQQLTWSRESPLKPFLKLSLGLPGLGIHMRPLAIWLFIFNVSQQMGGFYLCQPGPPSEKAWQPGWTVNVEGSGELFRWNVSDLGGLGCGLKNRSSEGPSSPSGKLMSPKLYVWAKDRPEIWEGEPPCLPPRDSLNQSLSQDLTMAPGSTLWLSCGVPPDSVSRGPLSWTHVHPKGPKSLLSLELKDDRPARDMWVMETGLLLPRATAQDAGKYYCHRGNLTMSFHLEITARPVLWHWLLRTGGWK
- Procedure Details: SPR Biacore, Ab captured on Protein A, CD19-His analyte
Entries and their kon
Report only the number, with the unit M⁻¹ s⁻¹ understood.

Exercise: Record request: kon value, item F4.4.6 (antibody, human IgG1, V domains shown, human-murine chimeric antibody, human IgG1 constant) VH: QVQLQQSGAELARPGASVKLSCKASGYTFTSYWMQWVKQRPGQGLEWIGAIYPGDGDSRYTQKFKGKATLTADKSSSTAYMQLSSLASEDSAVYYCARSTTTVLGNNFEYWGQGTTLTVSS VL: QIVLTQSPAIMSALPGEKVTMTCSASSSVSSMHWYQQKSGTSPKRWIYDTSKLASGVPARFSGSGSGTSYSLTISSMEAEDAATYYCQQWSSNPWTFGGGTKLEIK
Solution: 201000

Exercise: Record request: kon value, item F3.124.7 (antibody, human IgG1, V domains shown, human-murine chimeric antibody, human IgG1 constant) VH: EVQLQQSGPVLVKPGASVKMSCKASGYTFTDYYMNWVKQRHGKSLEWIGISNPYNGGTSYNQKFKDKATLTVDKSSSTAYMELNSLTSEDSAVYYCAREGGTAQPTSGMDYWGQGTSVTVSS VL: NIMMTQSPSSLAVSAGEKVTMSCKSSQSVLYSSNQKNYLAWYQQKPGQSPKLLIYWASTRESGVPDRFTGSGSGTDFTLTISSVQPEDPAVYYCHQYRSSYTFGGGTKLEIK
Solution: 69300

Exercise: Record request: kon value, item F3.133.14 (antibody, human IgG1, V domains shown, human-murine chimeric antibody, human IgG1 constant) VH: QVQLQQPGAELVMPGASVKLSCKASGYTFTNYWMHWVKQRPGQGLEWIGEIDPSDYYANYNQKFKGKATLTVDKSSSTAYMQLSSLTSEDSAVYYCARSHYYANSYNYWGQGTTLTVSS VL: EIELTQSPTTMAASPGEKITITCSASSSISSDYLHWYQQKPGFSPKLLIYRTSNLASGLPARFSGSGSGTSYSLTIGTMEAEDVATYYCQQGSSVPRMLTFGAGTKLELK
Solution: 90800

Exercise: Record request: kon value, item F4.272.13 (antibody, human IgG1, V domains shown, human-murine chimeric antibody, human IgG1 constant) VH: QVQLKESGPGLVAPSQSLSITCTVSGFSLTDYGVSWIRQPPGKGLEWLGVIWGSETTFYNSALKSRLSISKDNSKSQLFLQMNSLQADDTAIYYCAKHHYYGGSFSMDYWGQGTSVTVSS VL: DIQMTQTTSSLSASLGDRVTISCRASQDINNYLNWYQQKPDGTVKFLIYYTSRLHSGVPSRFSGSGSGTDYSLTISDLEQEDIATYFCQQGNTLPYTFGGGTKLEIK
Solution: 221000

Exercise: Record request: kon value, item F5.10.6 (antibody, human IgG1, V domains shown, human-murine chimeric antibody, human IgG1 constant) VH: DVQLQESGPGLVKPSQSLSLTCSVTDYSITSGYYWTWIRQFPGNKLEWMGYISYDGSTNYNPSLKNRFSITRDTSKNQFFLKLNSVIIEDTATYYCARDRMSTTWYFDVWGTGTTVTVSS VL: DIVLTQSPASLAVSLGQRATISCRASESVDNYGISFMHWYQQKPGQPPKLLIYRASKTESGIPARFSGSGSRTDFTLTINPVETDDVATYYCQQSNKYPRTFGGGTKVEIK
Solution: 82100
